growth inhibition for assorted molecules
- assay-name: NCI Yeast Anticancer Drug Screen. Data for the bub3 strain (AID 167)
- experimental-setup: S. cerevisiae bub3 mutant strain, at 50.0 µM, hits give high values
- Procedure: Growth inhibition of yeast strains with defined genetic alterations is measured as a screen for potential anti-cancer activity. Selected strains with alterations in DNA damage repair or cell cycle control were exposed to compounds and growth inhibition was measured relative to vehicle treated controls. The strain used in this assay is bub3
About 79,000 compounds went through this panel and 15% of them were active in at least one assay; those are over-represented in the sample as a whole.
// note: answer is a bare numeric in %

The examples below pair each entry with its known result.
[
  {
    "molecule": "CC1=CC=NN2C(=O)[C@H](C)C2C1 (stereo partly drawn)",
    "observation-type": "growth inhibition",
    "recorded-measurement": -9.05
  },
  {
    "molecule": "CC1(C)OC2C(CO)OC(n3cnc4c(=S)nc(N)[nH]c43)C2O1 (stereo not drawn)",
    "observation-type": "growth inhibition",
    "recorded-measurement": 12.5
  },
  {
    "molecule": "O=C1OC(c2ccccc2)=C/C1=C/c1ccc(Cl)cc1",
    "observation-type": "growth inhibition",
    "recorded-measurement": -7.3
  },
  {
    "molecule": "CCC#CCN(CCC)CCC",
    "observation-type": "growth inhibition",
    "recorded-measurement": -17.9
  },
  {
    "molecule": "CCC(C(=O)NC1c2ccccc2Oc2ccccc21)c1ccccc1 (stereo not drawn)",
    "observation-type": "growth inhibition",
    "recorded-measurement": 4.5
  }
]

Q: Which growth inhibition value is on record for C1=C(c2ccccc2)CCCC1 ?
Ans: -9.4

Q: Another molecule to look at: Cc1cc(=O)n2c(n1)Nc1ccccc1C2
Ans: 46.4

Q: Another molecule to look at: Cc1ccc([N+](=O)[O-])cc1NC(=O)Oc1cc(=O)oc2ccccc12
Ans: 1.7

Q: Another molecule to look at: CC(C(=O)O)n1c(=O)ssc1=O (stereo not drawn)
Ans: -8.7

Q: Another molecule to look at: CC(C)CC(=O)c1ccccn1
Ans: -19
